As shown below, each of these molecules has a reported pIC50 value.
- assayTarget: His-BIR3 (241-356, XIAP) (Homo sapiens, UniProt P98170)
- Construct: additions of His-BIR3 (241-356, XIAP), fluorescein labeled SMAC peptide
- Sequence (P98170 241-356): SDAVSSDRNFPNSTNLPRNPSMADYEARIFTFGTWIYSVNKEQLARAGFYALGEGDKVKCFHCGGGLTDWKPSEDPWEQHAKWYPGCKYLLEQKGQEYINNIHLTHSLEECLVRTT
- testProtocol: XIAP-BIR3/SMAC Homogeneous Time Resolved Fluorescence (HTRF) Assay
- Format: binding
- particulars: fluorescein labeled SMAC peptide
# pIC50: negative log10 of molar concentration; output just the value

Would you please look over these solved cases?
CN[C@@H](C)C(=O)N[C@H](C(=O)N1C[C@@H]2C[C@H]1C(=O)N[C@@H](Cc1ccc3ccccc3c1)C(=O)N[C@H](C(=O)O)CCC(=O)N[C@H]1C[C@@H](C(=O)N[C@@H](Cc3ccc4ccccc4c3)C(=O)N[C@H](C(=O)O)Cc3ccc(cc3)OC/C=C/CO2)N(C(=O)[C@@H](NC(=O)[C@H](C)NC)C(C)(C)C)C1)C(C)C : 7.24
CN[C@@H](C)C(=O)N[C@H](C(=O)N1C[C@@H]2C[C@H]1C(=O)NC(Cc1ccc3ccccc3c1)C(=O)N[C@H](c1n[nH]c(=O)n1Cc1ccc(OC)cc1)Cc1ccc(cc1)OC/C=C/C[C@H]1C[C@@H](C(=O)N[C@@H](Cc3ccc4ccccc4c3)C(=O)N[C@H](C(=O)O)Cc3ccc(cc3)OCc3cn2nn3)N(C(=O)[C@@H](NC(=O)[C@H](C)NC)C(C)(C)C)C1)C(C)(C)C (stereo partly drawn) : 8.51

pIC50 measured on CNC(C)C(=O)NC(C(=O)N1CC2CC1C(=O)NC(Cc1ccc3ccccc3c1)C(=O)NC(C(=O)O)Cc1ccc(cc1)OCCCCC1CC(C(=O)NC(Cc3ccc4ccccc4c3)C(=O)NC(C(=O)NS(=O)(=O)C(C)C)Cc3ccc(cc3)OCc3cn2nn3)N(C(=O)C(NC(=O)C(C)NC)C(C)(C)C)C1)C(C)(C)C (stereo not drawn) = 8.18
